Measured values drawn from BindingDB's records for patent US20250313563 for this set.

pIC50: −log10 of the molar value.
Task for the reader: assign each of the following molecules its reported pIC50.

[Q] // map Cc1cccc2c1CC[C@]21C2=C(N=NC2)NC2=C1C(=O)CC(C)(C)C2 [US20250313563, Compound 913137] to recorded pIC50 (system: Glycogen synthase kinase-3 beta (Homo sapiens))
Sequence (P49841 whole entry): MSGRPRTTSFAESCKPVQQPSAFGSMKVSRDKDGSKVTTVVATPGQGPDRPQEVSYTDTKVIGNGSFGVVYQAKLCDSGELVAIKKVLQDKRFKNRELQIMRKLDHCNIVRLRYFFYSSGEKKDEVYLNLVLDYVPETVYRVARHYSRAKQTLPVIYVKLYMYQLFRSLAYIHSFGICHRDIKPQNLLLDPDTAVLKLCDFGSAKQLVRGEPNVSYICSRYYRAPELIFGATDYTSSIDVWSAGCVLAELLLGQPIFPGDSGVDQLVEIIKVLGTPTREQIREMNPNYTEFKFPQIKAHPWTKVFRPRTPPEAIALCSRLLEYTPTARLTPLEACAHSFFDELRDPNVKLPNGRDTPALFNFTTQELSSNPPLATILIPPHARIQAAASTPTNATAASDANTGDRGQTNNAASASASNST
[A] < 5.30

[Q] // map CC[C@@]1(c2cccc(N(C)c3ccnnc3)c2)C2=CN=NC2NC2=C1C(=O)CC(C)(C)C2 (some centres undefined) [US20250313563, Compound 915630] to recorded pIC50 (system: Glycogen synthase kinase-3 beta (Homo sapiens))
[A] 5.30 to 6.00

[Q] // map CC[C@@]1(c2cccc(-c3cn(C)nc3C(C)C)c2)C2=CN=NC2NC2=C1C(=O)NC(C)(C)C2 (some centres undefined) [US20250313563, Compound 949111] to recorded pIC50 (system: Glycogen synthase kinase-3 beta (Homo sapiens))
[A] 5.30 to 6.00

[Q] // map CCC1(c2cccc(N(C)C(=O)C3CCOCC3)c2)C2=CN=NC2NC2=C1C(=O)CC(C)(C)C2 (centres undefined) [US20250313563, Compound 912070] to recorded pIC50 (system: Glycogen synthase kinase-3 beta (Homo sapiens))
[A] 6.00 to 7.00

[Q] // map CC[C@]1(c2cccc(-c3ccncc3F)c2)C2=CN=NC2NC2=C1C(=O)NC(C)(C)C2 (some centres undefined) [US20250313563, Compound 947874] to recorded pIC50 (system: Glycogen synthase kinase-3 beta (Homo sapiens))
[A] 5.30 to 6.00

[Q] // map Cc1nccc([C@H]2CC[C@]3(CC2)C2=C(N=NC2)NC2=C3C(=O)CC(C)(C)C2)c1C [US20250313563, Compound 950478] to recorded pIC50 (system: Glycogen synthase kinase-3 beta (Homo sapiens))
[A] > 7.00

[Q] // map CC1(C)CC(=O)C2=C(C1)NC1=C(CN=N1)C21CCN(S(=O)(=O)c2ccc3c(c2)CCO3)CC1 [US20250313563, Compound 913251] to recorded pIC50 (system: Glycogen synthase kinase-3 beta (Homo sapiens))
[A] > 7.00

[Q] // map CC[C@]1(c2cccc(-c3cc(C)nn3C)c2)C2=CN=NC2NC2=C1C(=O)CC(C)(C)C2 (some centres undefined) [US20250313563, Compound 946000] to recorded pIC50 (system: Glycogen synthase kinase-3 beta (Homo sapiens))
[A] < 5.30

[Q] // map CC[C@@]1(c2cccc(-c3ccnc(C)c3)c2)C2=CN=NC2NC2=C1C(=O)N[C@]1(CCCOC1)C2 (some centres undefined) [US20250313563, Compound 948152] to recorded pIC50 (system: Glycogen synthase kinase-3 beta (Homo sapiens))
[A] 6.00 to 7.00

[Q] // map CC(=O)N1C[C@@]2(C[C@@]3(CO2)C2=C(N=NC2)NC2=C3C(=O)CC(C)(C)C2)[C@@H]1C [US20250313563, Compound 948438] to recorded pIC50 (system: Glycogen synthase kinase-3 beta (Homo sapiens))
[A] > 7.00

[Q] // map CC[C@@]1(c2cccc(-c3ccnc4ccc(OC)cc34)c2)C2=CN=NC2NC2=C1C(=O)NC(C)(C)C2 (some centres undefined) [US20250313563, Compound 948527] to recorded pIC50 (system: Glycogen synthase kinase-3 beta (Homo sapiens))
[A] > 7.00

[Q] // map CC[C@@]1(c2cccc(-c3cnn4c3CCCC4)c2)C2=C(CC(C)(C)CC2=O)NC2N=NC(C)=C21 (some centres undefined) [US20250313563, Compound 913033] to recorded pIC50 (system: Glycogen synthase kinase-3 beta (Homo sapiens))
[A] 5.30 to 6.00

[Q] // map CO[C@H]1C[C@]2(C1)C1=C(N=NC1)NC1=C2C(=O)CC(C)(C)C1 [US20250313563, Compound 901472] to recorded pIC50 (system: Glycogen synthase kinase-3 beta (Homo sapiens))
[A] < 5.30

[Q] // map CC[C@]1(c2cccc(N(C)c3ccnc(C)c3)c2)C2=CN=NC2NC2=C1C(=O)CC(C)(C)C2 (some centres undefined) [US20250313563, Compound 932645] to recorded pIC50 (system: Glycogen synthase kinase-3 beta (Homo sapiens))
[A] 5.30 to 6.00
